- TARGET: human GLP-1 receptor (human, UniProt P43220)
- Sequence (P43220 24-463): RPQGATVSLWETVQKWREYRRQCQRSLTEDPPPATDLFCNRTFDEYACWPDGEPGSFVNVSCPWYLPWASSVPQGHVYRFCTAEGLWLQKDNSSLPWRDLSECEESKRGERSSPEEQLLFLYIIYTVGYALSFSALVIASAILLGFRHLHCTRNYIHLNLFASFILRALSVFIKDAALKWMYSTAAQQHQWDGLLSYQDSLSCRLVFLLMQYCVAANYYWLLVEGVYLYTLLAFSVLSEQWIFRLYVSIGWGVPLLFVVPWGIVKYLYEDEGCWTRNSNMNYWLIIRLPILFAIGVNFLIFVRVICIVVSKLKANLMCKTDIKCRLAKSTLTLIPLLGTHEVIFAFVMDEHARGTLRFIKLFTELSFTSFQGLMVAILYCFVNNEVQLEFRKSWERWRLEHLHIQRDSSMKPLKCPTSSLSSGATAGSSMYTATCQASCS
*1 amine or outer side, *2 acyl side, *3 side chain or, on linkers, in order; H or OH if unused. Where no end group is shown, it is not given here. Side-chain parts run from the residue outwards. [ ]: non-standard residue; d: D form. The star is where a group is joined. Dodecanoyl(12-OPh(4-COOH)) = O=C(O)c1ccc(OCCCCCCCCCCCC(=O)*)cc1; 9‑(3-carboxyphenoxy)nonanoyl = O=C(O)c1cccc(OCCCCCCCCC(=O)*)c1; Decanoyl(10-O(3-COOH-Ph)) = O=C(O)c1cccc(OCCCCCCCCCC(=O)*)c1; γGlu = O=C(O)[C@H](CCC(=O)[*:2])N[*:1]; C14 diacid = O=C(O)CCCCCCCCCCCCC(=O)*; AEEA = NCCOCCOCC(=O)O; Aib = CC(C)(N)C(=O)O
MEASUREMENT_TYPE: EC50/pM (0% HSA) (pM)
Report as a plain number; the unit pM is understood.

Some binders with recorded EC50/pM (0% HSA):
>  <BINDER>
H[Aib]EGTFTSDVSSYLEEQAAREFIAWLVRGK([AEEA-AEEA-AEEA-AEEA-γGlu-Decanoyl(10-O(3-COOH-Ph))])K([AEEA-AEEA-AEEA-AEEA-γGlu-Decanoyl(10-O(3-COOH-Ph))]) [GLP-1 derivative of Example 22]

>  <NUMBER>
1.8

$$$$
>  <BINDER>
H[Aib]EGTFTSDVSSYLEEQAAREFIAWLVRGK([AEEA-AEEA-γGlu-9‑(3-carboxyphenoxy)nonanoyl])K([AEEA-AEEA-γGlu-9‑(3-carboxyphenoxy)nonanoyl]) [GLP-1 derivative of Example 23]

>  <NUMBER>
7.7

$$$$
>  <BINDER>
H[Aib]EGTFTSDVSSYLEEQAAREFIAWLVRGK([AEEA-γGlu-γGlu-C14 diacid])K([AEEA-γGlu-γGlu-C14 diacid]) [GLP-1 derivative of Example 13]

>  <NUMBER>
1.3

$$$$

Okay, next one:
Asked: Reported EC50/pM (0% HSA) for H[Aib]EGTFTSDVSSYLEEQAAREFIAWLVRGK([AEEA-AEEA-γGlu-Dodecanoyl(12-OPh(4-COOH))])K([AEEA-AEEA-γGlu-Dodecanoyl(12-OPh(4-COOH))]) [GLP-1 derivative of Example 26] : what is it?
Given back: 1.5
